Where do the numbers come from? From ChEMBL document CHEMBL6103613.

assay: Hemolytic activity against mouse Red blood cells at 100 microg/ml incubated for 1 hr relative to control; assay type: toxicity, cell-based, Erythrocyte; settings: at 100 µg/mL, read-out: Activity
reported.metric: hemolysis at 1 h, 100 microg/ml (%)
API: value field is a number in %; no unit string.

Which measured hemolysis at 1 h, 100 microg/ml value corresponds to CC(C)C[C@H]1NC(=O)[C@H](Cc2c(C(c3ccccc3)(c3ccccc3)c3ccccc3)[nH]c3ccccc23)NC(=O)[C@@H](C(C)C)NC(=O)[C@@H]2CSC(N2)[C@H](C(C)C)NC(=O)[C@@H](CCCCN)NC(=O)[C@H](C(C)C)NC1=O ? 23
